- target system: recombinant PRL-2 (Homo sapiens, UniProt Q12974)
- Construct: 6xHis (N, cleaved yes); made in house; host or cells: E. coli One Shot BL21 Star
- Sequence (Q12974 whole entry): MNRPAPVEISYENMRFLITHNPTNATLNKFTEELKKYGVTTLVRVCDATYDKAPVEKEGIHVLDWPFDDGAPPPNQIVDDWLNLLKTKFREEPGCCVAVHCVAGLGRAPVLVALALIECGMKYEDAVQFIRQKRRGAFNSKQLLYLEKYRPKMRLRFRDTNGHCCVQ
- run description: In vitro phosphatase assay (DiFMUP hydrolysis), PRL-2;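 note: PRL-2 activity read as DiFMUP hydrolysis after 20 min at room temperature with drug, enzyme first pre-reduced at 4 °C for 20 min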
- Format: biochemical
measured endpoint: % Phosphatase Activity (compared to DMSO) PRL-2
# include the unit after the value

Here is how some molecules turned out for % Phosphatase Activity (compared to DMSO) PRL-2.
{"molecule": "CN1CCCCC1CCN1c2ccccc2Sc2ccc([S+](C)[O-])cc21 (stereo not shown) [Mesoridazine Besylate]", "target system": "recombinant PRL-2 (Homo sapiens, UniProt Q12974)", "value": "95%"}
{"molecule": "O=C([O-])c1ccccc1O.[Na+] [Sodium salicylate]", "target system": "recombinant PRL-2 (Homo sapiens, UniProt Q12974)", "value": "103%"}

Below: the item to evaluate.
Ask: API: value(readout= % Phosphatase Activity (compared to DMSO) PRL-2, system= recombinant PRL-2 (Homo sapiens, UniProt Q12974), query= CC1(C)S[C@@H]2[C@H](NC(=O)[C@H](N)c3ccc(O)cc3)C(=O)N2[C@H]1C(=O)[O-].[Na+] [Amoxicillin Sodium] )
Result: 114%

====

- target system: recombinant PRL-3 (Homo sapiens, UniProt O75365)
- Construct: 6xHis (N, cleaved yes); made in house; host or cells: E. coli One Shot BL21 Star
- Sequence (O75365 whole entry): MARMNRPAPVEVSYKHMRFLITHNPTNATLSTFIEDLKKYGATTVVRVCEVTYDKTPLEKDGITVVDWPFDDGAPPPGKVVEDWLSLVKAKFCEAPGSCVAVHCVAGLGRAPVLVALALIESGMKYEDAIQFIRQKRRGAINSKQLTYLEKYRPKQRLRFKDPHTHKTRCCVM
- run description: In vitro phosphatase assay (DiFMUP hydrolysis), PRL-3; note: test concentration or dose not given here
- Type: biochemical
- measurement conditions: FDA-approved drug screen; compared to DMSO
Structures can show the parent of a compound that is named as a salt. Non-standard residues stand in square brackets, D forms with d. Residues, ends and D or L forms follow the SMILES beside them. pGlu = O=C1CC[C@@H](C(=O)O)N1; Thz = O=C(O)[C@@H]1CSCN1
measured endpoint: % Phosphatase Activity (compared to DMSO) PRL-3
Answer with the number, then the unit.

Reference set, count: 2
{"molecule": "O=C1CC[C@@H](C(=O)N2CSC[C@H]2C(=O)O)N1 [Pidotimod] ([pGlu]-[Thz]-OH)", "value": "83%"}
{"molecule": "CCOC(=O)c1cncn1[C@H](C)c1ccccc1 [Etomidate]", "value": "79%"}

Ask: Hi! What's the reported % Phosphatase Activity (compared to DMSO) PRL-3 for Cn1c(=O)c2[nH]cnc2n(C)c1=O on recombinant PRL-3 (Homo sapiens, UniProt O75365)?
Result: 62%

Ask: Write down the reported % Phosphatase Activity (compared to DMSO) PRL-3 of C[C@]12CC[C@@H]3c4ccc(O)cc4C[C@@H](CCCCCCCCC[S+]([O-])CCCC(F)(F)C(F)(F)F)[C@H]3[C@@H]1CC[C@@H]2O (stereo partly drawn) , test system: recombinant PRL-3 (Homo sapiens, UniProt O75365).
Result: 82%

Ask: Quick check: % Phosphatase Activity (compared to DMSO) PRL-3 on recombinant PRL-3 (Homo sapiens, UniProt O75365), item CCC[C@H](N[C@@H](C)C(=O)N1[C@H](C(=O)O)C[C@@H]2CCCC[C@@H]21)C(=O)OCC ?
Result: 96%

Ask: State its % Phosphatase Activity (compared to DMSO) PRL-3 on recombinant PRL-3 (Homo sapiens, UniProt O75365): CC(=O)OCC(=O)NCCCOc1cccc(CN2CCCCC2)c1 [Roxatidine Acetate HCl]
Result: 95%

Ask: Notebook entry, recombinant PRL-3 (Homo sapiens, UniProt O75365) assay: % Phosphatase Activity (compared to DMSO) PRL-3 of CO[C@H]1C[C@@H]2CC[C@@H](C)[C@@](O)(O2)C(=O)C(=O)N2CCCC[C@H]2C(=O)O[C@H]([C@H](C)C[C@@H]2CC[C@@H](OCCO)[C@H](OC)C2)CC(=O)[C@H](C)/C=C(\C)[C@@H](O)[C@@H](OC)C(=O)[C@H](C)C[C@H](C)/C=C/C=C/C=C/1C [Everolimus (RAD001)] = ?
Result: 76%

Ask: Which % Phosphatase Activity (compared to DMSO) PRL-3 is reported with recombinant PRL-3 (Homo sapiens, UniProt O75365) for this entry: CCCc1nc(C(C)(C)O)c(C(=O)OCc2oc(=O)oc2C)n1Cc1ccc(-c2ccccc2-c2nnn[nH]2)cc1 ?
Result: 76%

Ask: Param readout= % Phosphatase Activity (compared to DMSO) PRL-3; system= recombinant PRL-3 (Homo sapiens, UniProt O75365); entry= N=C(N)NC(=O)c1nc(Cl)c(N)nc1N [Amiloride HCl] ; returns value.
Result: 230%

Ask: What % Phosphatase Activity (compared to DMSO) PRL-3 appears in the records for this molecule with recombinant PRL-3 (Homo sapiens, UniProt O75365)? CC1=NN(c2ccccc2)C(=O)C1
Result: 72%

meta.source: paper PMC8119466
